All figures here come from paper PMC5325384.

Target: T1, integrin αvβ3 (Homo sapiens, UniProt P06756)
T1 chain 1: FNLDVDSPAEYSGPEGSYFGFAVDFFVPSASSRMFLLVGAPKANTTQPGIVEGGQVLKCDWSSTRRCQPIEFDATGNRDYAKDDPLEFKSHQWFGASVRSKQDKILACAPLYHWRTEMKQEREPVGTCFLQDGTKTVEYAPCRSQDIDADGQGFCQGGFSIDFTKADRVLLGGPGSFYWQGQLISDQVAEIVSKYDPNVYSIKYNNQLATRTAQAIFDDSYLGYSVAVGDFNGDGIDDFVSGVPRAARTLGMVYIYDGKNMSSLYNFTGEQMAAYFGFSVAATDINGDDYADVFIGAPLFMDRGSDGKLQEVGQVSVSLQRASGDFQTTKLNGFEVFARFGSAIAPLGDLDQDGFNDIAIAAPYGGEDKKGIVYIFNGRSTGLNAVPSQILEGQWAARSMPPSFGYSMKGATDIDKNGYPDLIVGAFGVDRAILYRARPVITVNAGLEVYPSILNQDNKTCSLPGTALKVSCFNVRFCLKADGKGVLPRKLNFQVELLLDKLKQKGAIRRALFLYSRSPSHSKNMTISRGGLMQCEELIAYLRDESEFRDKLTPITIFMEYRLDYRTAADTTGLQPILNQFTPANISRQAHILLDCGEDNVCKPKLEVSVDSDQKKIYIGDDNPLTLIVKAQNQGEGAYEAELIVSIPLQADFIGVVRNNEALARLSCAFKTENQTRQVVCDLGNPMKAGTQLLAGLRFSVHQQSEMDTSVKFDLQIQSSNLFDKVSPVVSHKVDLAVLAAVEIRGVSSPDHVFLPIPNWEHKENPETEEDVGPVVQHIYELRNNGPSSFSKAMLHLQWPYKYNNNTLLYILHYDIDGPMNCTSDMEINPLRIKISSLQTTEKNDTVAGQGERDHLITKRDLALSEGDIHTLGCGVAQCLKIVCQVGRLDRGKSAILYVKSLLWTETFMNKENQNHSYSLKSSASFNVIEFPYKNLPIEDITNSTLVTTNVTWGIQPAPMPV
T1 chain 2: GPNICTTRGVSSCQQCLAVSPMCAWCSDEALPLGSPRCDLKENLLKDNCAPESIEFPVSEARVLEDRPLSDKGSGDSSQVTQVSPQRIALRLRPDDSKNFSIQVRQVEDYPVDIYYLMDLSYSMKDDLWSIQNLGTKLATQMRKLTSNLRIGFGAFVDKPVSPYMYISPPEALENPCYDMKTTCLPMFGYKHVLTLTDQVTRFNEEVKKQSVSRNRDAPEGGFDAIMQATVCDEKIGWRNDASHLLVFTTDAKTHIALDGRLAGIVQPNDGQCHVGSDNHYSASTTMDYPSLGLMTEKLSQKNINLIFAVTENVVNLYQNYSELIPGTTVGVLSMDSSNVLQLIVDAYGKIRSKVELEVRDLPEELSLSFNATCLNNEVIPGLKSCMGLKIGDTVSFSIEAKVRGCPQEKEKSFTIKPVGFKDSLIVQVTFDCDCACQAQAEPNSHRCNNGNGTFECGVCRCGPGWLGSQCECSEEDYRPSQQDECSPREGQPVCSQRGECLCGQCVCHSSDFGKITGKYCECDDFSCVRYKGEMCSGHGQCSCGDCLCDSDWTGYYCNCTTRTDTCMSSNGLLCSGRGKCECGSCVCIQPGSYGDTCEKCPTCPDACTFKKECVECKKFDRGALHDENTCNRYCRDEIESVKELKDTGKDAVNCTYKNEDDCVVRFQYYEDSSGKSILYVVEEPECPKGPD
Test: fluorescence plate saturation binding assay
Bridges are numbered along the chain shown (N, C = ends). Where no end group is shown, it is not given here. The star is where a group is joined. FITC = O=C1OC2(c3ccc(O)cc3Oc3cc(O)ccc32)c2ccc(NC(=S)*)cc21
Metric name: Kd (nM)
# unit: nM | format: bare number

Requested read-out: Kd. Entry: {FITC-ε‑Acp}-CSSAGSLFC (disulfide 1-9 (inferred)) [ALOS4-FITC] 192
